Task for the reader: assign each of the following binders its reported Kd.
target: T1, Dimeric fibrinogen-like domain of mouse (Mus musculus) Ang-2 conjugated to human IgG1 (mouse (Mus musculus)); test: SPR, antibody captured, room temp
T1 construct: also called Dimeric Mouse Ang-2FD; Mouse Ang-2FD-hFc
T1 sequence (chain, as listed by the source limits assumed): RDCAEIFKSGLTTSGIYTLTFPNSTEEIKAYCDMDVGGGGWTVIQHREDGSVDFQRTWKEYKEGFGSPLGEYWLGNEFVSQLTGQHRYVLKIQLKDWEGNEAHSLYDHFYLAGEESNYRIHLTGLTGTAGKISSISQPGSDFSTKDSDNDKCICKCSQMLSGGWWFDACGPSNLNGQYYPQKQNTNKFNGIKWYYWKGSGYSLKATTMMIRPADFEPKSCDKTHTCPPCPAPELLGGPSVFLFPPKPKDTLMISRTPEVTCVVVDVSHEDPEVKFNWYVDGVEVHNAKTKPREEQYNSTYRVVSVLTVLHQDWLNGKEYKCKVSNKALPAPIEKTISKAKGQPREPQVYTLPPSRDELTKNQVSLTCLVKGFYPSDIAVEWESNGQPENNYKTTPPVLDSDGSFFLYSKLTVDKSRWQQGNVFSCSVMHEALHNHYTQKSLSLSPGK
Answers are plain numbers, in nM.

Some solved entries appear below for comparison.
Binder	Kd [nM]
H1M728N (antibody, V domains shown) VH: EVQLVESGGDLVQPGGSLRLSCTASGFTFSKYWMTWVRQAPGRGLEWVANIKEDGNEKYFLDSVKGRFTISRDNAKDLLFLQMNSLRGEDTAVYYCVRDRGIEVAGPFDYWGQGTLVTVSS VL: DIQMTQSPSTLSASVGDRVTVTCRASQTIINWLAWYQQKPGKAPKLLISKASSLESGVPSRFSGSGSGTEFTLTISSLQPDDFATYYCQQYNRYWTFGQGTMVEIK	5.65
H2M749N (antibody, V domains shown, Hybridoma-derived chimeric antibody, mouse constant domains; also called H1M749N; H1M749) VH: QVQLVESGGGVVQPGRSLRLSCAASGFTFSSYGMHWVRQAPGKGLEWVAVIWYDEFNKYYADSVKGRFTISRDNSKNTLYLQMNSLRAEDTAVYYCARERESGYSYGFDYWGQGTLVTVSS VL: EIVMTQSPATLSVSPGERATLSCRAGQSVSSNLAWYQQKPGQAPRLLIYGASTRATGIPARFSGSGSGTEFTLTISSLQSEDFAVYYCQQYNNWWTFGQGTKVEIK	0.529

Read the next record carefully.
Given the binder H1M732N (antibody, V domains shown) VH: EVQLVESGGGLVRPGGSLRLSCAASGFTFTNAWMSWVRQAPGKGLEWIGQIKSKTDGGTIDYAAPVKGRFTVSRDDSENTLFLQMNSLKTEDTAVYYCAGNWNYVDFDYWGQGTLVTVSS VL: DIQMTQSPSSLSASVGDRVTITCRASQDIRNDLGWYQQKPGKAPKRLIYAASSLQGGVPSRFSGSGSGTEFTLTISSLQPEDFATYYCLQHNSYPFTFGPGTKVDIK , what is its reported Kd?
1.7

Provenance of the data: patent US20150147342A1
